experiment: self-splicing fitness, log relative to wild type (ln ratio); higher = more splicing; Tetrahymena group I intron in knt gene, E. coli kanamycin selection, DiMSum; sequences stand for … in CUCUCU…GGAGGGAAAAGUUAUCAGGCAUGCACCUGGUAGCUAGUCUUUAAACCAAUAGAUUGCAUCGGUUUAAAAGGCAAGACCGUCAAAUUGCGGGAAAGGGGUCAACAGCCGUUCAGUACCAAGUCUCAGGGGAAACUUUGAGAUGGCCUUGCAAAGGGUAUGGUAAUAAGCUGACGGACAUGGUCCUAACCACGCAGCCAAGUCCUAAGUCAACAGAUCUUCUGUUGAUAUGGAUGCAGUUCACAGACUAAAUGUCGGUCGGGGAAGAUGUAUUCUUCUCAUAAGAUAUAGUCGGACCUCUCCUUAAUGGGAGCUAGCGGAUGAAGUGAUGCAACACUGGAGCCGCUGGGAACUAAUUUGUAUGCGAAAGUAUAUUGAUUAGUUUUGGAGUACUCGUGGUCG; conditions: 30 °C;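 further: selection with 25 µg/mL kanamycin versus none on LB agar overnight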
recorded endpoint: self-splicing fitness (ln)
One number for each entry.

Go through the items and report each one's self-splicing fitness (ln).
1. GAUAAGCAAUAUUACGCCCU
2. CCGCAGCAAUAUUACGUAAU
3. UUCCAGCAAUAUUACGAUCA
4. ACGGAGCAAUAUUACGUUGG
5. GUCCAGCAAUAUUACGGUCG
6. CCCGAGCAAUAUUACGACUG
7. CCAUAGCAAUAUUACGGCCA

1: -0.569; 2: -3.78; 3: -1.26; 4: -3.62; 5: -0.533; 6: -4.27; 7: -3.07

Go through the items and report each one's self-splicing fitness (ln).
1. CGCGAGCAAUAUUACGGCAU
2. CCUGAGCAAUAUUACGACGG
3. UAUUAGCAAUAUUACGGGCC
4. UGUUAGCAAUAUUACGCGCC
5. GUCAAGCAAUAUUACGGGGU

-2.86
-3.06
-2.84
-1.13
-5.42

Go through the items and report each one's self-splicing fitness (ln).
1. CCUAAGCAAUAUUACGAGAA
2. GGGAAGCAAUAUUACGCAAU
3. GGCCAGCAAUAUUACGACGA

[-2.67, -2.67, -2.9]

Go through the items and report each one's self-splicing fitness (ln).
1. AGUAAGCAAUAUUACGUCAU
2. CCACAGCAAUAUUACGACGC
3. GCAGAGCAAUAUUACGAGGG

1. -2.97
2. -3.76
3. -3.47

Go through the items and report each one's self-splicing fitness (ln).
1. CACUAGCAAUAUUACGCAUC
2. UCUGAGCAAUAUUACGGACG
3. GCGUAGCAAUAUUACGAAGA
4. GAGUAGCAAUAUUACGCCGC
5. GAAUAGCAAUAUUACGUACU

[-4.23, -1.17, -1.89, -2.89, -0.732]

Go through the items and report each one's self-splicing fitness (ln).
1. GGUCAGCAAUAUUACGGUCC
2. GCAAAGCAAUAUUACGUGAG
3. UCGCAGCAAUAUUACGACGU
4. CAGUAGCAAUAUUACGUACU
5. CCUAAGCAAUAUUACGGGCC
6. UUCCAGCAAUAUUACGCUGU
7. AGUGAGCAAUAUUACGAAUG
8. UAGGAGCAAUAUUACGAGCC

[-3.1, -1.11, -1.46, -1.78, -3.18, -3.96, -3.4, -3.1]

Go through the items and report each one's self-splicing fitness (ln).
1. GAGAAGCAAUAUUACGGCUU
2. CUCCAGCAAUAUUACGCGAU
3. AGUGAGCAAUAUUACGAGGA

1. -3.58
2. -3.55
3. -2.48

This collection of values is drawn from the supplement of paper PMC7877785.
